Assay: Intranasal PK in rats (Table 4)
Conditions: title: oxymorphone released (released oxycodone), relative to oxycodone (OC)
Readout: %-Cmax of OC (%)
Value expressed in %; do not type the unit.

Solved cases below.
Compound	%-Cmax of OC [%]
COc1ccc2c3c1O[C@H]1C(OC(=O)c4ccc(O)cc4)=CC[C@@]4(O)[C@@H](C2)N(C)CC[C@]314 [Conjugate 4-OH-Bz-OC]	41
COc1ccc2c3c1OC1C(OC(=O)C(C)c4ccc(CC(C)C)cc4)=CCC4(O)C(C2)N(C)CCC314 (mixture of isomers) [Conjugate 6-lbu-OC]	10
COc1ccc(C(=O)OC2=CC[C@@]3(O)[C@H]4Cc5ccc(OC)c6c5[C@@]3(CCN4C)[C@H]2O6)cc1 [Conjugate 4-MeO-Bz-OC]	48

Please examine the following record next.
Given COc1ccc2c3c1O[C@H]1C(OC(=O)/C=C/c4ccccc4)=CC[C@@]4(O)[C@@H](C2)N(C)CC[C@]314 [6-Cinnamate-OC] , respond with its %-Cmax of OC.
22

----------
tmax values, listed per item
Experiment: Intranasal PK in rats: plasma concentrations of released oxymorphone by LC-MS/MS
Details: Table 6, equivalent to 2 mg/kg freebase oxycodone
Value expressed in min; do not type the unit.

Molecule	Number
COc1ccc2c3c1O[C@H]1C(OC(=O)c4ccc(O)cc4)=CC[C@@]4(O)[C@@H](C2)N(C)CC[C@]314 [Conjugate 4-OH-Bz-OC]	27

Given COc1ccc2c3c1OC1C(OC(=O)C(C)c4ccc(CC(C)C)cc4)=CCC4(O)C(C2)N(C)CCC314 (mixture of isomers) [Conjugate 6-lbu-OC] , respond with its tmax.
30

Given COc1ccc(C(=O)OC2=CC[C@@]3(O)[C@H]4Cc5ccc(OC)c6c5[C@@]3(CCN4C)[C@H]2O6)cc1 [Conjugate 4-MeO-Bz-OC] , respond with its tmax.
22

Given COc1ccc2c3c1O[C@H]1C(OC(=O)/C=C/c4ccccc4)=CC[C@@]4(O)[C@@H](C2)N(C)CC[C@]314 [6-Cinnamate-OC] , respond with its tmax.
30

----------
Assay: Intranasal PK in rats: plasma concentrations of released oxymorphone by LC-MS/MS
Conditions: Table 6, equivalent to 2 mg/kg freebase oxycodone
AUC values, listed per item
Value expressed in ng·h/mL; do not type the unit.

Solved cases below.
Molecule	Result Units	AUC
COc1ccc2c3c1OC1C(OC(=O)C(C)c4ccc(CC(C)C)cc4)=CCC4(O)C(C2)N(C)CCC314 (mixture of isomers) [Conjugate 6-lbu-OC]	ng·h/mL	0.7
COc1ccc2c3c1O[C@H]1C(OC(=O)/C=C/c4ccccc4)=CC[C@@]4(O)[C@@H](C2)N(C)CC[C@]314 [6-Cinnamate-OC]	ng·h/mL	1.7
COc1ccc2c3c1O[C@H]1C(OC(=O)c4ccc(O)cc4)=CC[C@@]4(O)[C@@H](C2)N(C)CC[C@]314 [Conjugate 4-OH-Bz-OC]	ng·h/mL	11.8

Please examine the following record next.
Given COc1ccc(C(=O)OC2=CC[C@@]3(O)[C@H]4Cc5ccc(OC)c6c5[C@@]3(CCN4C)[C@H]2O6)cc1 [Conjugate 4-MeO-Bz-OC] , respond with its AUC.
7.2

----------
Assay: Oral PK in rats: plasma concentrations of released oxycodone by LC-MS/MS
Conditions: conjugate equivalent to 2 mg/kg freebase oxycodone
Readout: tmax (min)
Value expressed in min; do not type the unit.

Solved cases below.
Compound	tmax (min)
COc1ccc2c3c1OC1C(OC(=O)C(C)c4ccc(CC(C)C)cc4)=CCC4(O)C(C2)N(C)CCC314 (mixture of isomers) [Conjugate 6-lbu-OC]	26.4
COc1ccc2c3c1O[C@H]1C(OC(=O)/C=C/c4ccccc4)=CC[C@@]4(O)[C@@H](C2)N(C)CC[C@]314 [6-Cinnamate-OC]	18
COc1ccc2c3c1O[C@H]1C(OC(=O)c4ccc(O)cc4)=CC[C@@]4(O)[C@@H](C2)N(C)CC[C@]314 [Conjugate 4-OH-Bz-OC]	45
COc1ccc2c3c1O[C@H]1C(OC(=O)c4cccc(N)c4)=CC[C@@]4(O)[C@@H](C2)N(C)CC[C@]314 [Conjugate 3-ABz-OC]	33
COc1ccc(C(=O)OC2=CC[C@@]3(O)[C@H]4Cc5ccc(OC)c6c5[C@@]3(CCN4C)[C@H]2O6)cc1 [Conjugate 4-MeO-Bz-OC]	15

Given COc1ccc2c3c1OC1C(OC(=O)C(C)c4cccc(C(=O)c5ccccc5)c4)=CCC4(O)C(C2)N(C)CCC314 (mixture of isomers) , respond with its tmax.
15

Given COc1ccc2c3c1OC1C(OC(=O)C(C)c4cccc(Oc5ccccc5)c4)=CCC4(O)C(C2)N(C)CCC314 (mixture of isomers) , respond with its tmax.
15
